B1: 2M8U (parent)
chain: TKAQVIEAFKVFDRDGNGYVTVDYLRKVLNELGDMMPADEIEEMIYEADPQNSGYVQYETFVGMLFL

- Variants of: B1
- test_summary: folding stability dG (cDNA display proteolysis); higher = more stable
- conditions_used: PBS, room temperature
I'd be grateful if you could share measured folding stability dG for these entries.
Expressed in kcal/mol, but write only the number.

Report measured folding stability dG; entry is TKAQVIEAFKVFDRDGNGYVTVDYLRKVLNELGDMMPADEIEEMIYEADPYNSGYVQYETFVGMLFL
3.62

Report measured folding stability dG; entry is TKAQVIEAFKVFDRDGNGYVTVDYLRKVLNELGDMMPADEIEEMHYEADPQNSGYVQYETFVGMLFL
2.08

Report measured folding stability dG; entry is TKAQVIEAFKVFDRDGNGYVTVDYLRKVLYELGDMMPADEIEEMIYEADPQNSGYVQYETFVGMLFL
3.57

Report measured folding stability dG; entry is TKAQVIEAFKVFDRDGNGYVTVDYLRKVLNELWDMMPADEIEEMIYEADPQNSGYVQYETFVGMLFL
3.55

Report measured folding stability dG; entry is TKAQVIEAFKVFDRDGNGYVTVKYLRKVLNELGDMMPADEIEEMIYEADPQNSGYVQYETFVGMLFL
3.64

Report measured folding stability dG; entry is TKAQVIEAFKVFDRDGNGYVTVDYLRKVLNELGDCMPADEIEEMIYEADPQNSGYVQYETFVGMLFL
3.25

Report measured folding stability dG; entry is TKAQVIEAFKVFDRDGNGYVTVDYLRKVLNELGDMMPADEIEEMIYEARPQNSGYVQYETFVGMLFL
2.21

Report measured folding stability dG; entry is TKKQVIEAFKVFDRDGNGYVTVDYLRKVLNELGDMMPADEIEEMIYEADPQNSGYVQYETFVGMLFL
3.31

Report measured folding stability dG; entry is TKAQVIEAFKVFDRDGNGYVTVDYLRKVLNELGDMMPADEIEEMIYEADPQNSGYVQYATFVGMLFL
3.15

Report measured folding stability dG; entry is TKAQVIEAFKVFDRDGNGYVTVDYLRKVLNTLGDMMPADEIEEMIYEADPQNSGYVQYETFVGMLFL
3.58

Report measured folding stability dG; entry is TKAQVIEAFKVFDRDGNGYVTVDYLRKVLNELGDMMPWDEIEEMIYEADPQNSGYVQYETFVGMLFL
4
